test.name: self-splicing fitness, log relative to wild type (ln ratio); higher = more splicing; Tetrahymena group I intron in knt gene, E. coli kanamycin selection, DiMSum; sequences stand for … in CUCUCU…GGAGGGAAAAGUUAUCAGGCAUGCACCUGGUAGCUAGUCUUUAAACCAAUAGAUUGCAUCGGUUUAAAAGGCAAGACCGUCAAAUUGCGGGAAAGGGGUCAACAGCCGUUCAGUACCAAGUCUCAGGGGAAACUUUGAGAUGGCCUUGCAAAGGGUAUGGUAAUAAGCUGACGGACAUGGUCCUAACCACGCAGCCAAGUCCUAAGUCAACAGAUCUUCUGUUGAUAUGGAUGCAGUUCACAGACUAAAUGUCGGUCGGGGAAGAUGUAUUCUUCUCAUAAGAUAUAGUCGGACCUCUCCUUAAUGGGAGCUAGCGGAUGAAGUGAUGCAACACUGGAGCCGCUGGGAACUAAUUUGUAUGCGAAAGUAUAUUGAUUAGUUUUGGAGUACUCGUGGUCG;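 note: selection with 25 µg/mL kanamycin versus none on LB agar overnight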
measurement.setup: 30 °C
# key: entry, value: self-splicing fitness (ln)
In your answer, state the number alone without any accompanying words.

Worked examples follow.
{"sequence.string": "AGGAAGCAAUAUUACGUAGG", "self-splicing fitness (ln)": -3}
{"sequence.string": "AGCGAGCAAUAUUACGCCUG", "self-splicing fitness (ln)": -3.09}
{"sequence.string": "GUUCAGCAAUAUUACGUCUG", "self-splicing fitness (ln)": -2.67}
{"sequence.string": "AAUCAGCAAUAUUACGGAAU", "self-splicing fitness (ln)": -0.646}
{"sequence.string": "ACCAAGCAAUAUUACGGUGG", "self-splicing fitness (ln)": -4.89}

Proceed to the following item.
Report measured self-splicing fitness (ln); entry is CCACAGCAAUAUUACGUGCA
-4.24

* * *

test.name: self-splicing fitness, log relative to wild type (ln ratio); higher = more splicing; Tetrahymena group I intron in knt gene, E. coli kanamycin selection, DiMSum; sequences stand for … in CUCUCU…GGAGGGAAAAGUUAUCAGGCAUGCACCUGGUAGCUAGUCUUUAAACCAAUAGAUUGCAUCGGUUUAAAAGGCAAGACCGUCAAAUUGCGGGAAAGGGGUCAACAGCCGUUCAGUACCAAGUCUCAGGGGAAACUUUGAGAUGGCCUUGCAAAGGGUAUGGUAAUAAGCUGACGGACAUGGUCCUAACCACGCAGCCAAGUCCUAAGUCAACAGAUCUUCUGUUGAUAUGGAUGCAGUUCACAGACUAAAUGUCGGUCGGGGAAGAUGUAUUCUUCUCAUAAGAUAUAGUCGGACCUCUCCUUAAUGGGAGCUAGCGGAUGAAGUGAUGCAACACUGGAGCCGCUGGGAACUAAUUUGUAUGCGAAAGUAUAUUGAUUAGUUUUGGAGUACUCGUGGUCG
measurement.setup: 30 °C
The following sequences are listed with their measured self-splicing fitness (ln) values.
Please state the value as a number alone, without comment.

{"sequence.string": "CUUCAGCAAUAUUACGACUC", "self-splicing fitness (ln)": -2.49}
{"sequence.string": "GUGGAGCAAUAUUACGGGUU", "self-splicing fitness (ln)": -3.16}
{"sequence.string": "ACGUAGCAAUAUUACGGGUU", "self-splicing fitness (ln)": -3.54}
{"sequence.string": "ACCAAGCAAUAUUACGCAGG", "self-splicing fitness (ln)": -3.41}

Respond only with self-splicing fitness (ln) recorded for UUCAAGCAAUAUUACGAUGG
-2.38

For GUUGAGCAAUAUUACGACUC , write its self-splicing fitness (ln).
0.144

Using known records, supply self-splicing fitness (ln) for UAGUAGCAAUAUUACGUUCC
-4.21

Provide self-splicing fitness (ln) value for the following sequence: CCUUAGCAAUAUUACGAUGC
-4.15

Supply reported self-splicing fitness (ln) belonging to this sequence: CAGCAGCAAUAUUACGAGGG
-3.15

* * *

Let's look at some sequences and their measured self-splicing fitness (ln).
test.name: self-splicing fitness, log relative to wild type (ln ratio); higher = more splicing; Tetrahymena group I intron in knt gene, E. coli kanamycin selection, DiMSum; sequences stand for … in CUCUCU…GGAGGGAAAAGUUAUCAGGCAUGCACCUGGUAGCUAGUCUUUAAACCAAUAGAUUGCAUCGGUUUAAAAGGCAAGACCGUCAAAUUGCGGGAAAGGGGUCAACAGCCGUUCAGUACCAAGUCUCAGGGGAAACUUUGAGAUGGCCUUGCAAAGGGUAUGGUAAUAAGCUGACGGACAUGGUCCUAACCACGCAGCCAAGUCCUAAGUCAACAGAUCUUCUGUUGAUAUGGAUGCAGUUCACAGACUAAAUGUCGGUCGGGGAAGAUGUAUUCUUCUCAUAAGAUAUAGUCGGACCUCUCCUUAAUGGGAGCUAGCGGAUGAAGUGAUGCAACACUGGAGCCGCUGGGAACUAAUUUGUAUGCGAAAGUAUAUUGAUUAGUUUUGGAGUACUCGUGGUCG
measurement.setup: 30 °C
Write the value as a bare number.

{"sequence.string": "AAUGAGCAAUAUUACGUGUC", "self-splicing fitness (ln)": -3.39}

Give me measured self-splicing fitness (ln), please, for this sequence: GUUAAGCAAUAUUACGUGCU
-1.6

Consider the sequence GGUUAGCAAUAUUACGUGGC . State its measured self-splicing fitness (ln).
-3.21

Entry UAAUAGCAAUAUUACGUCUG needs its self-splicing fitness (ln) filled in; supply it.
-0.694

Please list self-splicing fitness (ln) recorded for the sequence GUAAAGCAAUAUUACGGUCC
-1.23

* * *

Property: self-splicing fitness (ln); scope: individual sequences
test.name: self-splicing fitness, log relative to wild type (ln ratio); higher = more splicing; Tetrahymena group I intron in knt gene, E. coli kanamycin selection, DiMSum; sequences stand for … in CUCUCU…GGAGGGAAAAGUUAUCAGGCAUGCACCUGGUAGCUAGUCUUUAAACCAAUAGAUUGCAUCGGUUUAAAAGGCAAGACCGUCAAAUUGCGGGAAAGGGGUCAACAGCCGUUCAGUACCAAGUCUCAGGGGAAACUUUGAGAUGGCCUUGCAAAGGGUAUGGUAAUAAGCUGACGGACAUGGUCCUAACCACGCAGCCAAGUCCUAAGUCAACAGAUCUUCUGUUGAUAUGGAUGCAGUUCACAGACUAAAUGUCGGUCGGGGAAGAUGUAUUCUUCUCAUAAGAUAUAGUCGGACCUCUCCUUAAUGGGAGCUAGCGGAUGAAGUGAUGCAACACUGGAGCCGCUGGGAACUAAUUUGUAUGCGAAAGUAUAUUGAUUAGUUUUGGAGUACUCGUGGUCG
measurement.setup: 37 °C
Lab note: record just the number, no unit beside it.

Consider the reported self-splicing fitness (ln) for these sequences:
{"sequence.string": "CAAAAGCAAUAUUACGCCAG", "self-splicing fitness (ln)": -1.32}
{"sequence.string": "AUCAAGCAAUAUUACGUUAA", "self-splicing fitness (ln)": -1.87}
{"sequence.string": "CAAGAGCAAUAUUACGAAUA", "self-splicing fitness (ln)": -2.28}
{"sequence.string": "CACUAGCAAUAUUACGCCUG", "self-splicing fitness (ln)": -0.344}
{"sequence.string": "CAAUAGCAAUAUUACGUGCG", "self-splicing fitness (ln)": -0.0882}
{"sequence.string": "AUUUAGCAAUAUUACGAGCG", "self-splicing fitness (ln)": -1.05}
{"sequence.string": "CGAAAGCAAUAUUACGCAGC", "self-splicing fitness (ln)": -3.68}
{"sequence.string": "CGCGAGCAAUAUUACGUCUG", "self-splicing fitness (ln)": -0.178}

We next turn to a different sequence, shown below.
Using the record for GUGCAGCAAUAUUACGAUUU , state its measured self-splicing fitness (ln).
-0.209

* * *

Each entry below carries its recorded self-splicing fitness (ln).
test.name: self-splicing fitness, log relative to wild type (ln ratio); higher = more splicing; Tetrahymena group I intron in knt gene, E. coli kanamycin selection, DiMSum; sequences stand for … in CUCUCU…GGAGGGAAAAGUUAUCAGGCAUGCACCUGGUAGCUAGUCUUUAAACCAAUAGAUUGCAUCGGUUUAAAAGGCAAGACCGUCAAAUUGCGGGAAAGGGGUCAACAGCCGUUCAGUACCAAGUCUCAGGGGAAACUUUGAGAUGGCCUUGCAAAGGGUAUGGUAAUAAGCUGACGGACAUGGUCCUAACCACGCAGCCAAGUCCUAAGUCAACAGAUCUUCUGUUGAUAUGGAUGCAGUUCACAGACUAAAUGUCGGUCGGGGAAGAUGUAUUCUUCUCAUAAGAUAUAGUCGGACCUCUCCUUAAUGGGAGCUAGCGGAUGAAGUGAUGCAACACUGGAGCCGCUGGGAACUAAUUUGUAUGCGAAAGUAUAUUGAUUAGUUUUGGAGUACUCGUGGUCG
measurement.setup: 37 °C
Form rule: numeric answer, no unit written next to it.

Known self-splicing fitness (ln) results, listed for orientation:
{"sequence.string": "UAGCAGCAAUAUUACGGGGA", "self-splicing fitness (ln)": -1.73}
{"sequence.string": "UCUUAGCAAUAUUACGAGUC", "self-splicing fitness (ln)": -2.22}
{"sequence.string": "CCGGAGCAAUAUUACGUCAC", "self-splicing fitness (ln)": -2.71}
{"sequence.string": "GCACAGCAAUAUUACGAGCU", "self-splicing fitness (ln)": -1.07}
{"sequence.string": "AUCCAGCAAUAUUACGCCGU", "self-splicing fitness (ln)": -0.133}
{"sequence.string": "UGACAGCAAUAUUACGCGUU", "self-splicing fitness (ln)": -2.75}

For AUAAAGCAAUAUUACGGGUG , write its self-splicing fitness (ln).
-0.259

For the sequence CUGAAGCAAUAUUACGGCUC , give its reported self-splicing fitness (ln).
-2.52
